Biological target: Tyrosine-protein kinase ABL1 (Homo sapiens)
Settings: Compound concentration 20.0 uM, Protein concentration 2.0 uM, Result type QC Liability
Description: Thermal Shift Assay. Domain: start/stop: S229-K512
Here, each record is paired with measured ΔTm data.
Answer in °C, number only, no unit symbol.

1) COc1cc(C(=O)NCCOCCOCCOCC(=O)N[C@H](C(=O)N2C[C@@H](O)C[C@H]2C(=O)NCc2ccc(-c3scnc3C)cc2)C(C)(C)C)ccc1Nc1ncc(C(F)(F)F)c(Oc2cccc3c2C(=O)CC3)n1; -2.56
2) CC(C)c1cnc(NC(=O)Cc2ccccc2)s1; 1.04
3) Cc1ccc(-c2cn3nc(C(=O)NC4(c5ccc(F)cc5)CN(C)C4)c(C(C)C)c3c(=O)[nH]2)cc1C; -0.12
4) Cc1csc(S(=O)(=O)N(CC(C)C)c2cc3c(cc2OCc2ccc(C(=O)O)cc2)CCC3)n1; 0.11
5) Nc1ncnc2c1c(I)cn2[C@@H]1O[C@H](CO)[C@@H](O)[C@H]1O; 2.09
6) Cc1ncsc1-c1ccc(CNC(=O)[C@@H]2C[C@@H](O)CN2C(=O)[C@@H](NC(=O)C2(F)CC2)C(C)(C)C)c(OCCOc2ccc(CN3CCN(c4cc(-c5ccccc5O)nnc4N)CC3)cc2)c1; 0.25
7) O=C(O)c1cc(-c2ccccc2)ccc1O; 0.56

Measured ΔTm, CNc1nc(Nc2ccc(C(=O)N3CCOCC3)cc2OC)ncc1Cl : 0.4

* * *

Target: Tyrosine-protein kinase ABL1 (Homo sapiens)
Settings: Compound concentration 20.0 uM, Protein concentration 2.0 uM, Result type QC Liability
OUTCOME_MEASURE: ΔTm (°C)
Quick note: give the figure in °C, leave out the unit.

Worked examples follow.
1. CCOC(=O)Nc1ccc2c(c1)N(C(=O)CN(CC)CC)c1ccccc1CC2; 0.17
2. Nc1ncc2c(n1)-c1c([nH]c3ccc(C4CC4)cc13)CCCC2; 0.19
3. Cc1cc(CN(CC(=O)Nc2ccc(Cl)cc2Cl)C2CCCCC2)ccc1OCC(=O)O; -1.67

Please turn your attention to the following entry.
Record CC(=O)Nc1cccc(-n2c(=O)n(C3CC3)c(=O)c3c(Nc4ccc(I)cc4F)n(C)c(=O)c(C)c32)c1 , field ΔTm: -0.1

* * *

Target: Cyclin-dependent kinase 2 (Homo sapiens)
Details: Compound concentration 20.0 uM, Protein concentration 2.0 uM, Result type QC Liability
Description: Thermal Shift Assay. Domain: start/stop: M1-L298
Simple rule here: ΔTm less than 0.5 °C is Satisfied, otherwise Not satisfied.

Challenge: Just wondering, is ΔTm of Cc1cn([C@@H](C)CC#N)c(=O)c2cc(Cn3nc(C(F)F)cc3Cl)nn12 below 0.5 °C?
Response given: Satisfied

Challenge: Problem: For the molecule N#Cc1cccc(-c2c[nH]c3ncnc(N4CCOCC4)c23)c1 , is ΔTm under 0.5 °C?
Response given: Not satisfied

Challenge: Item CCN(C)C(=O)c1ccc2c(c1)NC(=O)/C2=C(\NC1CCN(C)CC1)c1ccccc1 : ΔTm beneath 0.5 °C, strictly?
Response given: Satisfied

Challenge: Lab log: compare recorded ΔTm with 0.5 °C; is it strictly lower for CCS(=O)(=O)Nc1cccc(Oc2cncc(Nc3ccc(I)cc3F)c2C(N)=O)c1 ?
Response given: Not satisfied

Challenge: Input N=C(N)NCCC[C@H](NC(=O)CC1(CC(=O)N2CCN(C3c4ccccc4NC(=O)c4ccccc43)CC2)CCCC1)C(=O)NCCn1c(=O)n(-c2ccccc2)n(-c2ccccc2)c1=O (some centres undefined) ; condition: ΔTm strictly below 0.5 °C. Does it hold?
Response given: Satisfied

Challenge: For this molecule, is ΔTm lower than 0.5 °C? Cc1cc(CN(CC(=O)Nc2ccc(Cl)cc2Cl)C2CCCCC2)ccc1OCC(=O)O
Response given: Satisfied

Challenge: Given the entry O=C(Nc1ccc(OC(F)(F)Cl)cc1)c1cnc(N2CC[C@@H](O)C2)c(-c2cc[nH]n2)c1 , would its reported ΔTm be below 0.5 °C?
Response given: Not satisfied

Challenge: For this molecule, is ΔTm lower than 0.5 °C? C=CC(=O)Nc1ccc(C(=O)Nc2[nH]nc3c2CN(C(=O)N[C@H](CN(C)C)c2ccccc2)C3(C)C)cc1
Response given: Not satisfied

Challenge: Lab note: confirm whether the reported ΔTm for this molecule is below 0.5 °C, equality not counting. molecule: CC1(C)C[C@@H]1C(=O)N/C(=C\CCCCSC[C@H](N)C(=O)O)C(=O)O
Response given: Not satisfied

Challenge: Record COc1ccc(CSc2nnc(-c3ccc4ncsc4c3)o2)cc1C(F)(F)F : is its ΔTm strictly below 0.5 °C?
Response given: Not satisfied

Challenge: Strictly below 0.5 °C: is that where ΔTm of Cn1cncc1-c1cn(-c2cccc(C(=O)Nc3cccc(C(F)(F)F)c3)c2)nn1 sits?
Response given: Satisfied

Challenge: Consider the molecule CN(C)C(=O)Cn1cc(-c2nc([C@@](C)(c3ccc(-c4cnc(N)nc4)cc3)C3CC3)no2)cn1 . Is its ΔTm strictly less than 0.5 °C?
Response given: Satisfied

Challenge: Confirm or reject: ΔTm of O=C(Cc1ccccc1)Nc1nnc(N2C[C@H]3C[C@@H]2CN3c2cccnn2)s1 lies strictly below 0.5 °C
Response given: Not satisfied

Challenge: Check if ΔTm falls below 0.5 °C for Clc1ccccc1C(c1ccccc1)(c1ccccc1)n1ccnc1 .
Response given: Satisfied

Challenge: hey, is ΔTm for COc1cc(C(=O)O)ncc1C#Cc1ccccc1NS(=O)(=O)c1cccc2c(N(C)C)ccnc12 lower than 0.5 °C or not?
Response given: Satisfied
